tested on: MRPs; assay: Loganin transport across Caco-2 monolayers with MRPs inhibitor MK 571; assay type: in vitro ADME, human; conditions: human, Caco-2, pH 7.4, with MK571 100 μM; with MK 571 100 μM; read-out: P (efflux ratio PappBA/PappAB)
EXPERIMENTAL_READOUT: efflux ratio at 120 min, 20 μM

[[record]]
structure_string = "COC(=O)C1=CO[C@@H](O[C@@H]2O[C@H](CO)[C@@H](O)[C@H](O)[C@H]2O)[C@@H]2[C@@H](C)[C@@H](O)C[C@H]12"
target_under_test = "MRPs"
data_value = 0.14


###

test: Bidirectional transport across Caco-2 cell monolayers (concentration, time, pH, temperature; control without inhibitor); type: in vitro ADME, human; details: human, Caco-2, pH 7.4; control, no inhibitor, loganin 20 μM, n = 3
EXPERIMENTAL_READOUT: Papp A→B at 120 min, 20 μM (×10⁻⁶ cm/s)

[[record]]
molecule = "COC(=O)C1=CO[C@@H](O[C@@H]2O[C@H](CO)[C@@H](O)[C@H](O)[C@H]2O)[C@@H]2[C@@H](C)[C@@H](O)C[C@H]12 [loganin, Loganin]"
data_value = 13


These data points were gathered from paper PMC6323428.
